Tgt: Trypsin (Homo sapiens, UniProt P07477+P07478+P35030)
Test Summary: Inhibition of trypsin
Format: protein assay
Quantity Name: IC50 (nM)

Use the examples below as a reference point.
>>> result_value("N=C(N)c1ccc(CNC(=O)[C@@H]2CCN2C(=O)[C@H](NCC(=O)O)C2CCCCC2)cc1")
11.9
>>> result_value("N=C(N)c1ccc(CNC(=O)[C@@H]2C=CCN2C(=O)[C@@H](CC2CCCCC2)NCC(=O)O)cn1")
4.8
>>> result_value("N=C(N)c1ccc(CNC(=O)[C@@H]2C=CCN2C(=O)[C@@H](CC2CCCCC2)NCC(=O)O)s1")
1.6
>>> result_value("N=C(N)c1coc(CNC(=O)[C@@H]2C=CCN2C(=O)[C@@H](CC2CCCCC2)NCC(=O)O)c1")
1.9

(I) Cc1cc(CNC(=O)[C@@H]2C=CCN2C(=O)[C@@H](CC2CCCCC2)NCC(=O)O)sc1C(=N)N
(II) N=C(N)c1csc(CNC(=O)[C@@H]2C=CCN2C(=O)[C@@H](CC2CCCCC2)NCC(=O)O)n1
Please state the entry with greater IC50 among I and II . Could you answer with the label of the item you picked?
I
(I: 117 nM, II: 21 nM)

* * *

Test system: Rattus norvegicus
Test Summary: Antithrombin activity in rat at 1 mg/kg, iv after 60 mins measured as ecarin clotting time prolongation
Format: functional
Quantity Name: Time (s)
Provide only the numeric value, understood in s.

>>> result_value("N=C(N)c1ccc(CNC(=O)[C@@H]2C=CCN2C(=O)[C@@H](CC2CCCCC2)NCC(=O)O)cn1")
128
>>> result_value("N=C(N)c1cc(CNC(=O)[C@@H]2C=CCN2C(=O)[C@@H](CC2CCCCC2)NCC(=O)O)cs1")
81
>>> result_value("N=C(N)c1cc(CNC(=O)[C@@H]2C=CCN2C(=O)[C@@H](CC2CCCCC2)NCC(=O)O)on1")
58

I would be grateful if you could share the reported Time for "Cn1c(CNC(=O)[C@@H]2C=CCN2C(=O)[C@@H](CC2CCCCC2)NCC(=O)O)ccc1C(=N)N" .
58

* * *

Test Summary: Clearance in dog
Format: ADME, organism-based, Canis lupus familiaris
Experimental Setup: in vivo
Quantity Name: clearance (mL/min/kg)

>>> result_value("N=C(N)c1csc(CNC(=O)[C@@H]2C=CCN2C(=O)[C@@H](CC2CCCCC2)NCC(=O)O)n1")
8.33
>>> result_value("N=C(N)c1ccc(CNC(=O)[C@@H]2C=CCN2C(=O)[C@@H](CC2CCCCC2)NCC(=O)O)cn1")
8.33

* * *

Tgt: Tissue-type plasminogen activator (Homo sapiens)
Sequence (P00750 whole entry): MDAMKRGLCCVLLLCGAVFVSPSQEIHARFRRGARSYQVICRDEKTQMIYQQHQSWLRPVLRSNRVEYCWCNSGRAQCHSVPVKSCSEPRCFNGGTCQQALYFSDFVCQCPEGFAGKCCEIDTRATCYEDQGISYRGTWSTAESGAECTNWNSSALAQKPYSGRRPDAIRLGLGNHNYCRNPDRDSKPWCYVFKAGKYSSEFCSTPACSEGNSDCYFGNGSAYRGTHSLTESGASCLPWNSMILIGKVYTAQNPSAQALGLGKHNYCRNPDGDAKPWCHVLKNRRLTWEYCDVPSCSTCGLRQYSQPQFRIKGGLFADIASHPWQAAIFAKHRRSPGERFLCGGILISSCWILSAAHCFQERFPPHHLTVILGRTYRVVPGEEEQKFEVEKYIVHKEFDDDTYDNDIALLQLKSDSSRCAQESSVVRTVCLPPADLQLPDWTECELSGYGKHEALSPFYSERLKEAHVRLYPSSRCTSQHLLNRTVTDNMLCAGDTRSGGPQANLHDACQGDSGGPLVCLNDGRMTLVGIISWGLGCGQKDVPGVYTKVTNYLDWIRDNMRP
Quantity Name: IC50 (nM)

>>> result_value("N=C(N)c1coc(CNC(=O)[C@@H]2C=CCN2C(=O)[C@@H](CC2CCCCC2)NCC(=O)O)c1")
125

(1) Cc1cc(CNC(=O)[C@@H]2C=CCN2C(=O)[C@@H](CC2CCCCC2)NCC(=O)O)sc1C(=N)N
(2) N=C(N)c1csc(CNC(=O)[C@@H]2C=CCN2C(=O)[C@@H](CC2CCCCC2)NCC(=O)O)n1
Could you point out whether the larger IC50 belongs to 1 or to 2 ? To answer, give the label that identifies your chosen option.
1
(1: 687 nM, 2: 173 nM)
